System: antibodies in sera from SARS patients (sera 1a, 1b, 2, 6, 37, 62, London, SARS-yellow, SARS-green)
Assay type: binding, human
Set-up: unit not given here
Exercise: state measured Binding of serum London to looped/cyclic peptides of protein N of SARS-CoV Urbani for each of the sequences provided.
Give bare numbers.

| SEQ TEXT | QUANTITATIVE RESULT |
| --- | --- |
| LSPRWYFYYLGTGPE | 0.3 |
| FGGPTDSTDNNQNGG | 0.2 |
| GQGVPINTNSGPDDQ | 0.3 |
| DSTDNNQNGGRNGAR | 0.5 |
| LNKHIDAYKTFPPTE | 0.3 |

The sequence ARPKQRRPQGLPNNT showed Binding of serum London to looped/cyclic peptides of protein N of SARS-CoV Urbani equal to 0.3
